Kindly supply the reported switch fluorescence ratio values for the records listed here.
System: ATP;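 also: ATP exposure 15 min at 22 °C before imaging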
Measurement description: switch fluorescence ratio, 500 uM ATP over buffer (Cy3 cluster intensity, sum of 5 cycles each) (fold (ratio)); higher = stronger signal-on switching upon ATP binding; sequences stand for … in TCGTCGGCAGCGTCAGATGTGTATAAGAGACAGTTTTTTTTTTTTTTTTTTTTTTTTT…TC
Measurement setup: aptamer strand: ATP DNA aptamer (quencher-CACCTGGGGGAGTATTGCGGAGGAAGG + anchor), 100 nM annealed; ATP concentration: 500 uM
Give your answer as a number; write no unit.

Q: switch fluorescence ratio for `AGGGAAAAGA` ?
Result: 1.03

Q: Similarly, `AAATTATTTC` ?
Result: 0.989

Q: Similarly, `GCGTTGGGTC` ?
Result: 1.02

Q: Similarly, `TTGTTAGGCC` ?
Result: 0.995

Q: Similarly, `TGGGGGAAA` ?
Result: 0.988

Q: Similarly, `AGTAGTTTCG` ?
Result: 0.983

Q: Similarly, `GAGTGGATAG` ?
Result: 0.996

Q: Similarly, `GTGTGGATTC` ?
Result: 0.998

Q: Similarly, `TTACTCGTCT` ?
Result: 1.08

Q: Similarly, `TACTTAGTTT` ?
Result: 1.01

Q: Similarly, `ATCGGAGGTC` ?
Result: 0.978

Q: Similarly, `GCGATCAATC` ?
Result: 1.71

Q: Similarly, `TTTTTATCGT` ?
Result: 1.02

Q: Similarly, `GGGGGTAAGT` ?
Result: 1.01

Q: Similarly, `GGAATCAAGG` ?
Result: 1.02

Q: Similarly, `TGACATTGTA` ?
Result: 1.01

Q: Similarly, `CACATTTAGG` ?
Result: 0.978

Q: Similarly, `AAGGGGGGTA` ?
Result: 0.997

Q: Similarly, `GTTTAGACGT` ?
Result: 1.01

Q: Similarly, `CCGCGGGGTG` ?
Result: 2.2

Q: Similarly, `CCGAGGGGGT` ?
Result: 1.81

###

Test system: ATP;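 also: ATP exposure 15 min at 22 °C before imaging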
Measurement description: switch fluorescence ratio, 500 uM ATP over buffer (Cy3 cluster intensity, sum of 5 cycles each) (fold (ratio)); higher = stronger signal-on switching upon ATP binding; sequences stand for … in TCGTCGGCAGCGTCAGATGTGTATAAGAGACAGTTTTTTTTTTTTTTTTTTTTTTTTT…TC
Measurement setup: aptamer strand: ATP DNA aptamer (quencher-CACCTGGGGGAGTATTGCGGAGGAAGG + anchor), 100 nM annealed; ATP concentration: 500 uM
Kindly supply the reported switch fluorescence ratio values for the records listed here.

Q: Hi! What's the reported switch fluorescence ratio for `GCTGTTTGAT` on ATP?
Result: 0.959

Q: Similarly, `GTATCCGGGA` ?
Result: 1.02

Q: Similarly, `CTGGGGCGGA` ?
Result: 0.983

Q: Similarly, `CTAGCTTAGC` ?
Result: 0.99

Q: Similarly, `AGGCAGTCCA` ?
Result: 1

Q: Similarly, `TGATTTGACC` ?
Result: 1.03

Q: Similarly, `GAGGTCGGCA` ?
Result: 1.02

Q: Similarly, `CGGTGTCAGC` ?
Result: 1.01

Q: Similarly, `TGGTTTCATT` ?
Result: 1.01

Q: Similarly, `AAGGGTTGGC` ?
Result: 0.983

Q: Similarly, `TTGGAATTGT` ?
Result: 1

Q: Similarly, `AGCCGGGTGT` ?
Result: 1.34

Q: Similarly, `AGATAGGAG` ?
Result: 0.989

Q: Similarly, `AGGTAGGTAA` ?
Result: 1.03

Q: Similarly, `ATATATAGCC` ?
Result: 1.01

Q: Similarly, `TTTAACGTTT` ?
Result: 0.979

Q: Similarly, `AGCATTTAGG` ?
Result: 1.02

Q: Similarly, `TCTTTGGGGG` ?
Result: 1

Q: Similarly, `AATAGCGACT` ?
Result: 1.03

Q: Similarly, `TCGGTGTGCG` ?
Result: 1.03

Q: Similarly, `AGGCCCATGT` ?
Result: 1.02

Q: Similarly, `TAGGGTTCAA` ?
Result: 0.989

Q: Similarly, `TAAGGTGGCT` ?
Result: 1.01

Q: Similarly, `GAATGTTAAT` ?
Result: 1.04

Q: Similarly, `ATTTTGTGAG` ?
Result: 0.969

Q: Similarly, `CATGCTATTC` ?
Result: 1.17

Q: Similarly, `ATAAAGGAAG` ?
Result: 0.99

Q: Similarly, `ATCACTCTTT` ?
Result: 1.02

Q: Similarly, `CGACTAAAAG` ?
Result: 0.999

Q: Similarly, `GCCGGGTATG` ?
Result: 1.02

Q: Similarly, `GTGCTGGGGG` ?
Result: 1.02

Q: Similarly, `TGGAAGTTAG` ?
Result: 0.964

Q: Similarly, `TTCGGGGTGG` ?
Result: 0.998

Q: Similarly, `TCTGGGTAAT` ?
Result: 0.996

Q: Similarly, `GGTATAGGCT` ?
Result: 0.996

Q: Similarly, `CGTCTATTGT` ?
Result: 0.98

Q: Similarly, `CGGGGTGAGG` ?
Result: 0.997

Q: Similarly, `TCTTAGTGGG` ?
Result: 1.01

Q: Similarly, `TTGGTAGAGT` ?
Result: 0.965

Q: Similarly, `TTGGGGATAT` ?
Result: 0.998

Q: Similarly, `CGTTGCGCCA` ?
Result: 1.02

Q: Similarly, `GCTTAGTGTC` ?
Result: 0.975

Q: Similarly, `ATCGTTTATT` ?
Result: 0.994

###

Kindly supply the reported switch fluorescence ratio values for the records listed here.
Tested on: ATP;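 also: ATP exposure 15 min at 22 °C before imaging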
Measurement description: switch fluorescence ratio, 500 uM ATP over buffer (Cy3 cluster intensity, sum of 5 cycles each) (fold (ratio)); higher = stronger signal-on switching upon ATP binding; sequences stand for … in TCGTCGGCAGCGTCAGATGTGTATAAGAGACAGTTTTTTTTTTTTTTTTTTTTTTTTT…TC
Measurement setup: aptamer strand: ATP DNA aptamer (quencher-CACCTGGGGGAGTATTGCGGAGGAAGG + anchor), 100 nM annealed; ATP concentration: 500 uM
Give your answer as a number; write no unit.

Q: switch fluorescence ratio for `ATAAATGAGG` ?
Result: 1.01

Q: Similarly, `GACATGAAGG` ?
Result: 1

Q: Similarly, `GCCGGGGTCG` ?
Result: 1.02

Q: Similarly, `TATAGGGGGG` ?
Result: 1

Q: Similarly, `TGATAGTAT` ?
Result: 0.96

Q: Similarly, `TGGTCCGCTA` ?
Result: 1.76

Q: Similarly, `GTAAAAAGTG` ?
Result: 1.05

Q: Similarly, `TTTTTTCATA` ?
Result: 0.997

Q: Similarly, `CATTCATGTT` ?
Result: 0.985

Q: Similarly, `CCCGTATACT` ?
Result: 3.22

Q: Similarly, `ACACTAGGTG` ?
Result: 1.42

###

System: ATP;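 also: ATP exposure 15 min at 22 °C before imaging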
Measurement description: switch fluorescence ratio, 500 uM ATP over buffer (Cy3 cluster intensity, sum of 5 cycles each) (fold (ratio)); higher = stronger signal-on switching upon ATP binding; sequences stand for … in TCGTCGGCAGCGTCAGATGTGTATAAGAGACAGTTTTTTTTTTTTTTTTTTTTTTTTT…TC
Measurement setup: aptamer strand: ATP DNA aptamer (quencher-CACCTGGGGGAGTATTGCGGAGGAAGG + anchor), 100 nM annealed; ATP concentration: 500 uM
Property name: switch fluorescence ratio
Give your answer as a number; write no unit.

Q: switch fluorescence ratio for `GGATATGGGG` ?
Result: 0.99

Q: Similarly, `GGATTATGTC` ?
Result: 0.975

Q: Similarly, `AATTGGGTTA` ?
Result: 0.976

Q: Similarly, `TTTAATCTG` ?
Result: 0.962

Q: Similarly, `GTTAGAAGGT` ?
Result: 1

Q: Similarly, `CGAAGCAGGA` ?
Result: 2.4

Q: Similarly, `AATTTTAAAT` ?
Result: 1.09

Q: Similarly, `GGGCGGCCTA` ?
Result: 0.999

Q: Similarly, `TAATATTGGG` ?
Result: 0.989

Q: Similarly, `ATGTCATGCG` ?
Result: 1.02

Q: Similarly, `AAGATGGGGT` ?
Result: 0.991

Q: Similarly, `GGGTAATGTG` ?
Result: 0.982

Q: Similarly, `CTTTTAGTTT` ?
Result: 0.996

Q: Similarly, `TGTGTGTTGA` ?
Result: 1.02

Q: Similarly, `AGTCGAGGGG` ?
Result: 1.01

Q: Similarly, `GCTAACACTT` ?
Result: 1.02

Q: Similarly, `AGTCGCCTGG` ?
Result: 1

Q: Similarly, `TAGAATCCGG` ?
Result: 0.979

Q: Similarly, `TTTTTCATGT` ?
Result: 0.997

Q: Similarly, `GATTCCGTGT` ?
Result: 1.01

Q: Similarly, `GGCCGCACGC` ?
Result: 3.69

Q: Similarly, `GCTCAATTGA` ?
Result: 1

Q: Similarly, `GCTTCAGGGA` ?
Result: 1.02

Q: Similarly, `TATGCCATTT` ?
Result: 1.03

Q: Similarly, `ATGTGTTGCG` ?
Result: 1

Q: Similarly, `TAGTGCAATA` ?
Result: 1.7

Q: Similarly, `ATCGTTCGGC` ?
Result: 0.976

Q: Similarly, `GTGAGGGGGT` ?
Result: 1.06

Q: Similarly, `AGGGCGACAG` ?
Result: 1.01

Q: Similarly, `CTGCGACTGT` ?
Result: 1.03

Q: Similarly, `GAAGTAGTAA` ?
Result: 1.02

Q: Similarly, `TATTACTTGC` ?
Result: 1.03

Q: Similarly, `TTTAGCT` ?
Result: 1.08

Q: Similarly, `TGAAACCCTA` ?
Result: 1.03

Q: Similarly, `CGGGTGATTC` ?
Result: 1.04

Q: Similarly, `CAATATGTTG` ?
Result: 1.02

Q: Similarly, `GCGTTTACTT` ?
Result: 1

Q: Similarly, `TAGAGGGCGG` ?
Result: 1.03

Q: Similarly, `ATGGGGAGTC` ?
Result: 0.985

Q: Similarly, `GTTATTGTTC` ?
Result: 0.975

Q: Similarly, `ACGATGCGGG` ?
Result: 1.09

Q: Similarly, `CGCCTAAGGG` ?
Result: 0.993

Q: Similarly, `GGGTTCTTAT` ?
Result: 0.992

Q: Similarly, `GTGCAAGGTA` ?
Result: 1

Q: Similarly, `CGGGTTGCGG` ?
Result: 0.951

Q: Similarly, `TTTTTCCGCA` ?
Result: 2.18

Q: Similarly, `GATCGCCCCG` ?
Result: 1

Q: Similarly, `TGGGGTTTCA` ?
Result: 1

Q: Similarly, `TTATAAATTG` ?
Result: 0.991

Q: Similarly, `GGAAAAAATG` ?
Result: 1

Q: Similarly, `CGGTACCATC` ?
Result: 1.02

Q: Similarly, `TTAGCAACGA` ?
Result: 1.09

Q: Similarly, `CAACCTGCGA` ?
Result: 1.42

Q: Similarly, `TGGTCCCCGG` ?
Result: 0.997

Q: Similarly, `TAGGTGCCTT` ?
Result: 1.01

Q: Similarly, `CTAATTGGTT` ?
Result: 0.988

Q: Similarly, `AAGTTCAAGA` ?
Result: 0.99

Q: Similarly, `GCGTAATATG` ?
Result: 1.16

Q: Similarly, `GGTAGCGGGG` ?
Result: 1.02

Q: Similarly, `GAAGCTGTTT` ?
Result: 1.03

Q: Similarly, `TCGTATGCGT` ?
Result: 1.11

Q: Similarly, `GGCGGTAGTG` ?
Result: 0.999

Q: Similarly, `AAACTTAATC` ?
Result: 1.04

Q: Similarly, `AGGGCAAACG` ?
Result: 1.05

Q: Similarly, `AAGCCGATCT` ?
Result: 0.974

Q: Similarly, `ACTTTCTCAG` ?
Result: 1.08

Q: Similarly, `TAGGAGAGCC` ?
Result: 1.03

Q: Similarly, `GGGCATTTTG` ?
Result: 0.998

Q: Similarly, `ACCGGTGTAC` ?
Result: 1.77

Q: Similarly, `TACAGTCTGG` ?
Result: 1.01

Q: Similarly, `AAGGGAATAA` ?
Result: 1.11

Q: Similarly, `AGAAAAAAGC` ?
Result: 0.989

Q: Similarly, `GGGGACTTTG` ?
Result: 1.09

Q: Similarly, `CTAATAATAT` ?
Result: 1.01

Q: Similarly, `TCAACTATTA` ?
Result: 0.977

Q: Similarly, `TTTTAGAGGA` ?
Result: 0.974

Q: Similarly, `TAGATTGGTG` ?
Result: 0.991

Q: Similarly, `CCAAAATTGA` ?
Result: 1

Q: Similarly, `TTACCTGGGG` ?
Result: 1.03

Q: Similarly, `GGTAAAATTT` ?
Result: 1

Q: Similarly, `ACTAGGTGCG` ?
Result: 1.06

Q: Similarly, `ACTGACTCA` ?
Result: 1.23

Q: Similarly, `ATTTGGTGAG` ?
Result: 0.983

Q: Similarly, `AGGGAAATCG` ?
Result: 0.979

Q: Similarly, `GGTAGGGTGC` ?
Result: 0.985

Q: Similarly, `GACAGAAGTG` ?
Result: 1.02
